Molecular target: soluble guanylate cyclase (sGC) (Bos taurus, UniProt P16068)
Construct: The sGC employed had been isolated from bovine lung; from tissue; host or cells: bovine lung
Sequence (P16068 1-619): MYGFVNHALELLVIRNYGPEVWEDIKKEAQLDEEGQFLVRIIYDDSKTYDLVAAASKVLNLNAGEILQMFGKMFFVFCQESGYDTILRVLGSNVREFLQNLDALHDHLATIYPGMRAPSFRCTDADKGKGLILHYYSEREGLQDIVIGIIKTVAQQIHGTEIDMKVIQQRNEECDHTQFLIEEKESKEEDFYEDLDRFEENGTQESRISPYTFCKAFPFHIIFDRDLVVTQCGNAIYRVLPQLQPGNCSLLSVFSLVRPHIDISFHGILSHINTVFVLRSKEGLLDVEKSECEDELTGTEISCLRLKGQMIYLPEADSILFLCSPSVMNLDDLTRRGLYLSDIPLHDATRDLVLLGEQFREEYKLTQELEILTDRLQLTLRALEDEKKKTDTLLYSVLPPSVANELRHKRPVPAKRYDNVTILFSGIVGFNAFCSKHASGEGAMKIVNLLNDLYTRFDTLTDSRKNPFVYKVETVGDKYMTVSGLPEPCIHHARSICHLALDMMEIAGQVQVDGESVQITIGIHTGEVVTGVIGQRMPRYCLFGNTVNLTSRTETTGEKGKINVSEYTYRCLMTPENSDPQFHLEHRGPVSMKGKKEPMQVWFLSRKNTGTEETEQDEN
Sequence (P19687 1-691 partner): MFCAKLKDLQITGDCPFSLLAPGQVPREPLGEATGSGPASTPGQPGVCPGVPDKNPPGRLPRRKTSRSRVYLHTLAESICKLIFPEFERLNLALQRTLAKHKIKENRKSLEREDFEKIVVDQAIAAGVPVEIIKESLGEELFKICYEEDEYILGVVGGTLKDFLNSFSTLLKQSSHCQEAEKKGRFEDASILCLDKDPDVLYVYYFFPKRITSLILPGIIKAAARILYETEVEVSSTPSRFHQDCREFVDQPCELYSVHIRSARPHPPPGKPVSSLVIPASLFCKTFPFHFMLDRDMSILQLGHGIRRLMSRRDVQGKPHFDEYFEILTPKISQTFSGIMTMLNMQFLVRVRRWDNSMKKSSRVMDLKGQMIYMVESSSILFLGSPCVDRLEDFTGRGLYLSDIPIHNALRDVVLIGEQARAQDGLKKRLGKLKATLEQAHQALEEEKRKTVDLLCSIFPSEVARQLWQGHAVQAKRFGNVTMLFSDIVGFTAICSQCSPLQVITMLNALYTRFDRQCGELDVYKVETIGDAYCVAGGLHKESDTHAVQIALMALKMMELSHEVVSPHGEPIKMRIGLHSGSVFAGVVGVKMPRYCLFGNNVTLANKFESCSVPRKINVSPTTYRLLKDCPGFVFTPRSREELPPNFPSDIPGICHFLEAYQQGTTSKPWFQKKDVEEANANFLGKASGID
Experiment: Activation of soluble guanylate cyclase (cGMP enzyme immunoassay)
Assay type: biochemical
Settings: concentration c 50 μM; sGC isolated from bovine lung; stimulation of basal enzyme activity vs solvent control
Entries and their measured n-fold stimulation follow.
quantity-measured: n-fold stimulation (n-fold)

smiles-representation: O=C(O)Cc1cccc(NC(=O)c2cc(Cl)ccc2NS(=O)(=O)c2ccc(Cl)cc2)c1
unit-string: n-fold
readout-value: 2.5

smiles-representation: O=C(Nc1ccc(N2CCCC2=O)cc1)c1cc(Cl)ccc1NS(=O)(=O)c1ccccc1
unit-string: n-fold
readout-value: 2.4

smiles-representation: O=C(Nc1ccc(C(=O)N2CCOCC2)cc1)c1cc(Cl)ccc1NS(=O)(=O)c1ccc(Cl)cc1
unit-string: n-fold
readout-value: 3.8

smiles-representation: CCN(CC)Cc1cc(NC(=O)c2cc(Cl)ccc2NS(=O)(=O)c2ccc(Cl)cc2)ccc1O
unit-string: n-fold
readout-value: 1.5

---

target: soluble guanylate cyclase (sGC) (Bos taurus); construct: The sGC employed had been isolated from bovine lung; from tissue; host or cells: bovine lung; assay: Activation of soluble guanylate cyclase (cGMP enzyme immunoassay); assay type: biochemical; conditions: concentration c 50 μM; sGC isolated from bovine lung; stimulation of basal enzyme activity vs solvent control
Entries and their measured n-fold stimulation follow.
quantity-measured: n-fold stimulation (n-fold)

smiles-representation: O=C(O)CNC(=O)c1ccc(NC(=O)c2cc(Cl)ccc2NS(=O)(=O)c2ccc(Cl)cc2)cc1
unit-string: n-fold
readout-value: 1.7
//
smiles-representation: O=C(Nc1ccc(N2CCOCC2)cc1)c1cc(Cl)ccc1NS(=O)(=O)c1ccc(Cl)cc1
unit-string: n-fold
readout-value: 8
//
smiles-representation: CC(=O)c1ccc(NC(=O)c2cc(Cl)ccc2NS(=O)(=O)c2ccc(Cl)cc2)cc1
unit-string: n-fold
readout-value: 2.4

---

target: soluble guanylate cyclase (sGC) (Bos taurus, UniProt P16068); construct: The sGC employed had been isolated from bovine lung; from tissue; host or cells: bovine lung; assay: Activation of soluble guanylate cyclase (cGMP enzyme immunoassay); format: biochemical; settings: concentration c 100 μM; sGC isolated from bovine lung; stimulation of basal enzyme activity vs solvent control
quantity-measured: n-fold stimulation

smiles-representation: CCOC(=O)c1cc(NC(=O)c2cc(Cl)ccc2NS(=O)(=O)c2ccc(Cl)c(Cl)c2)ccc1Cl
readout-value: 3.2 n-fold
--
smiles-representation: CCOC(=O)c1ccc(NC(=O)c2cc(Cl)ccc2NS(=O)(=O)c2ccc(Cl)cc2)cc1
readout-value: 1.7 n-fold
--
smiles-representation: O=C(Nc1cccc(C(F)(F)F)c1)c1cc(Br)ccc1NS(=O)(=O)c1ccc(Cl)cc1
readout-value: 9.2 n-fold
--
smiles-representation: O=C(Nc1ccc(Oc2ccc(Cl)c3ccccc23)c(Cl)c1)c1cc(Cl)ccc1NS(=O)(=O)c1ccc(Cl)cc1
readout-value: 26.3 n-fold
--
smiles-representation: O=C(Nc1cccc(Cl)c1)c1cc(Cl)ccc1NS(=O)(=O)c1ccc(Cl)cc1
readout-value: 1.7 n-fold
--
smiles-representation: O=C(Nc1ccc(Br)cc1)c1cc(Cl)ccc1NS(=O)(=O)c1ccc(Cl)cc1
readout-value: 1.6 n-fold
--
smiles-representation: O=C(Nc1cccc(C(F)(F)F)c1)c1ccccc1NS(=O)(=O)c1ccc(Cl)cc1
readout-value: 3.6 n-fold
--
smiles-representation: COc1ccc(S(=O)(=O)Nc2ccc(Cl)cc2C(=O)Nc2ccc(F)cc2)cc1Cl
readout-value: 2 n-fold
--
smiles-representation: COc1ccc(NC(=O)c2cc(Cl)ccc2NS(=O)(=O)c2ccc(Cl)cc2)cc1
readout-value: 1.8 n-fold
--
smiles-representation: O=C(Nc1ccc(Oc2ccccc2)cc1)c1ccccc1NS(=O)(=O)c1ccc(Cl)cc1
readout-value: 2.8 n-fold
--
smiles-representation: O=C(Nc1ccc2ccccc2c1)c1ccccc1NS(=O)(=O)c1ccc(Cl)cc1
readout-value: 2 n-fold
--
smiles-representation: O=C(Nc1cc(Cl)cc(Cl)c1)c1cc(Cl)ccc1NS(=O)(=O)c1ccc(F)cc1
readout-value: 1.8 n-fold
--
smiles-representation: O=C(Nc1ccc(Oc2ccc(Cl)cc2)cc1)c1cc(Cl)ccc1NS(=O)(=O)c1ccc(Cl)cc1
readout-value: 4.2 n-fold
--
smiles-representation: CC(C)c1ccc(NC(=O)c2cc(Cl)ccc2NS(=O)(=O)c2ccc(Cl)cc2)cc1
readout-value: 4.1 n-fold

---

quantity-measured: melting point (°C)

smiles-representation: CC(=O)c1ccc(NC(=O)c2cc(Cl)ccc2NS(=O)(=O)c2ccc(Cl)cc2)cc1
unit-string: °C
readout-value: 226

smiles-representation: COc1cc(NC(=O)c2cc(Cl)ccc2NS(=O)(=O)c2ccc(Cl)cc2)cc(OC)c1
unit-string: °C
readout-value: 74.5

smiles-representation: O=C(Nc1cccc(C(F)(F)F)c1)c1ccccc1NS(=O)(=O)c1ccc(Cl)cc1
unit-string: °C
readout-value: 169

smiles-representation: COc1ccc(NC(=O)c2cc(Cl)ccc2NS(=O)(=O)c2ccc(Cl)cc2)cc1
unit-string: °C
readout-value: 190

smiles-representation: O=C(Nc1cccc(C(F)(F)F)c1)c1cc(Cl)ccc1NS(=O)(=O)c1ccc(Cl)cc1
unit-string: °C
readout-value: 216

smiles-representation: O=C(Nc1ccc(Oc2ccc(Cl)cc2)cc1)c1cc(Cl)ccc1NS(=O)(=O)c1ccc(Cl)cc1
unit-string: °C
readout-value: 207

smiles-representation: O=C(Nc1ccc2ccccc2c1)c1cc(Cl)ccc1NS(=O)(=O)c1ccc(Cl)cc1
unit-string: °C
readout-value: 211

smiles-representation: CS(=O)(=O)N(c1ccc(NC(=O)c2cc(Cl)ccc2NS(=O)(=O)c2ccc(Cl)cc2)cc1)S(C)(=O)=O
unit-string: °C
readout-value: 235

smiles-representation: O=C(Nc1ccc(N2CCOCC2)cc1)c1cc(Cl)ccc1NS(=O)(=O)c1ccc(Cl)cc1
unit-string: °C
readout-value: 228.5

smiles-representation: O=C(Nc1cc(-c2cccs2)n[nH]1)c1cc(Cl)ccc1NS(=O)(=O)c1ccc(Cl)cc1
unit-string: °C
readout-value: 117

smiles-representation: Cc1cncc(NC(=O)c2cc(Cl)ccc2NS(=O)(=O)c2ccc(Cl)cc2)n1
unit-string: °C
readout-value: 248

smiles-representation: O=C(Nc1ccc(Br)cc1)c1cc(Cl)ccc1NS(=O)(=O)c1ccc(Cl)cc1
unit-string: °C
readout-value: 210

smiles-representation: O=C(Nc1cc(Cl)cc(Cl)c1)c1cc(Cl)ccc1NS(=O)(=O)c1ccc(F)cc1
unit-string: °C
readout-value: 250

smiles-representation: O=C(Nc1ccc(Oc2ccccc2)cc1)c1ccccc1NS(=O)(=O)c1ccc(Cl)cc1
unit-string: °C
readout-value: 143

smiles-representation: O=C(Nc1ccccc1C(F)(F)F)c1cc(Cl)ccc1NS(=O)(=O)c1ccc(Cl)cc1
unit-string: °C
readout-value: 182

smiles-representation: CC(C)c1ccc(NC(=O)c2cc(Cl)ccc2NS(=O)(=O)c2ccc(Cl)cc2)cc1
unit-string: °C
readout-value: 188

smiles-representation: O=C(Nc1cccc(C(F)(F)F)c1)c1cc(Br)ccc1NS(=O)(=O)c1ccc(Cl)cc1
unit-string: °C
readout-value: 220

smiles-representation: COc1ccc(C(F)(F)F)cc1NC(=O)c1cc(Cl)ccc1NS(=O)(=O)c1ccc(Cl)cc1
unit-string: °C
readout-value: 164.5

smiles-representation: CCOC(=O)c1ccc(NC(=O)c2cc(Cl)ccc2NS(=O)(=O)c2ccc(Cl)cc2)cc1
unit-string: °C
readout-value: 185

smiles-representation: COc1cccc(NC(=O)c2cc(Cl)ccc2NS(=O)(=O)c2ccc(Cl)cc2)c1
unit-string: °C
readout-value: 163.5

smiles-representation: O=C(Nc1ccc2ccccc2c1)c1ccccc1NS(=O)(=O)c1ccc(Cl)cc1
unit-string: °C
readout-value: 189

smiles-representation: O=C(Nc1ccc(OCc2ccccc2)cc1)c1cc(Cl)ccc1NS(=O)(=O)c1ccc(Cl)cc1
unit-string: °C
readout-value: 191

smiles-representation: O=C(Nc1cc(C(F)(F)F)cc(C(F)(F)F)c1)c1cc(Cl)ccc1NS(=O)(=O)c1ccc(Cl)cc1
unit-string: °C
readout-value: 182.5

smiles-representation: O=C(Nc1ccc(Nc2ccccc2)cc1)c1cc(Cl)ccc1NS(=O)(=O)c1ccc(Cl)cc1
unit-string: °C
readout-value: 192.5

smiles-representation: O=C(Nc1ccc(Oc2ccccc2)cc1)c1cc(Cl)ccc1NS(=O)(=O)c1ccc(Cl)cc1
unit-string: °C
readout-value: 205

smiles-representation: CCOC(=O)c1cc(NC(=O)c2cc(Cl)ccc2NS(=O)(=O)c2ccc(Cl)c(Cl)c2)ccc1Cl
unit-string: °C
readout-value: 202

smiles-representation: O=C(Nc1cccc(Cl)c1)c1cc(Cl)ccc1NS(=O)(=O)c1ccc(Cl)cc1
unit-string: °C
readout-value: 228
